# Tested on: S. aureus Newman
# Protocol Notes: Bliss interaction score (quartile over a dose matrix) (fitness difference); higher = more antagonism (negative = synergy)
Recorded Endpoint: Bliss interaction score
// no unit string in output, number only

{"Molecule": "N#CC(C#N)=NNc1cccc(Cl)c1 [CCCP] + C[C@H]1c2cccc(O)c2C(=O)C2=C(O)[C@]3(O)C(=O)C(C(N)=O)=C(O)[C@@H](N(C)C)[C@@H]3[C@@H](O)[C@@H]21 [Doxycycline]", "Recorded Endpoint": "Bliss interaction score", "Measured Value": 0.0768}

Now for the molecule whose Bliss interaction score we want.
Task: Need Bliss interaction score of CN(C)[C@@H]1C(O)=C(C(N)=O)C(=O)[C@@]2(O)C(O)=C3C(=O)c4c(O)ccc(Cl)c4[C@@](C)(O)[C@H]3C[C@@H]12 [Clortetracycline] + CN[C@@H]1[C@H](O[C@H]2[C@H](O[C@H]3[C@H](O)[C@@H](O)[C@H](N=C(N)N)[C@@H](O)[C@@H]3N=C(N)N)O[C@@H](C)[C@]2(O)C=O)O[C@@H](CO)[C@H](O)[C@H]1O [Streptomycin] , thanks.
Result: -0.0515

====

# Tested on: B. subtilis 168
# Protocol Notes: Bliss interaction score (quartile over a dose matrix) (fitness difference); higher = more antagonism (negative = synergy)
Recorded Endpoint: Bliss interaction score

Completed entries (count: 5):
{"Compound": "COc1ccc(C[C@H](N)C(=O)N[C@H]2[C@@H](O)[C@H](n3cnc4c(N(C)C)ncnc43)O[C@@H]2CO)cc1 [Puromycin] + CC1=C\\[C@@H](O)CC(=O)Cc2nc(co2)C(=O)N2CCC=C2C(=O)O[C@H](C(C)C)[C@H](C)/C=C/C(=O)NC\\C=C\\1 [Virginiamycin M1]", "Recorded Endpoint": "Bliss interaction score", "Measured Value": 0.0535}
{"Compound": "C[C@@H]1O[C@@H]1P(=O)(O)O [Fosfomycin] + CCC[C@@H]1C[C@@H](C(=O)N[C@@H]([C@H]2O[C@H](SC)[C@H](O)[C@@H](O)[C@H]2O)[C@@H](C)O)N(C)C1 [Lincomycin]", "Recorded Endpoint": "Bliss interaction score", "Measured Value": 0.0718}
{"Compound": "N#CC(C#N)=NNc1cccc(Cl)c1 [CCCP] + CO/N=C(\\C(=O)N[C@@H]1C(=O)N2C(C(=O)O)=C(COC(C)=O)CS[C@H]12)c1csc(N)n1 [Cefotaxime]", "Recorded Endpoint": "Bliss interaction score", "Measured Value": 0.139}
{"Compound": "CO/N=C(\\C(=O)N[C@@H]1C(=O)N2C(C(=O)O)=C(COC(N)=O)CS[C@H]12)c1ccco1 [Cefuroxime] + O=C1CN(/N=C/c2ccc([N+](=O)[O-])o2)C(=O)N1 [Nitrofurantoin]", "Recorded Endpoint": "Bliss interaction score", "Measured Value": -0.104}
{"Compound": "CN(C)[C@@H]1C(O)=C(C(N)=O)C(=O)[C@@]2(O)C(O)=C3C(=O)c4c(O)ccc(Cl)c4[C@@](C)(O)[C@H]3C[C@@H]12 [Clortetracycline] + CN[C@H](CC(C)C)C(=O)N[C@H]1C(=O)N[C@@H](CC(N)=O)C(=O)N[C@H]2C(=O)N[C@H]3C(=O)N[C@H](C(=O)N[C@H](C(=O)O)c4cc(O)cc(O)c4-c4cc3ccc4O)[C@H](O)c3ccc(c(Cl)c3)Oc3cc2cc(c3O[C@@H]2O[C@H](CO)[C@@H](O)[C@H](O)[C@H]2O[C@H]2C[C@](C)(N)[C@H](O)[C@H](C)O2)Oc2ccc(cc2Cl)[C@H]1O [Vancomycin]", "Recorded Endpoint": "Bliss interaction score", "Measured Value": -0.0454}

Task: Find the recorded Bliss interaction score belonging to O=C(O)c1cn(C2CC2)c2cc(N3CCNCC3)c(F)cc2c1=O [Ciprofloxacin] + CC[C@H]1OC(=O)[C@H](C)C(=O)[C@H](C)[C@@H](O[C@@H]2O[C@H](C)C[C@H](N(C)C)[C@H]2O)[C@](C)(OC)C[C@@H](C)C(=O)[C@H](C)[C@H]2N(CCCCn3cnc(-c4cccnc4)c3)C(=O)O[C@]12C [Telithromycin] and report it.
Result: 0.149

Task: Quick one: Bliss interaction score of COc1cccc2c1C(=O)c1c(O)c3c(c(O)c1C2=O)C[C@@](O)(C(=O)CO)C[C@@H]3O[C@H]1C[C@H](N)[C@H](O)[C@H](C)O1 [Doxorubicin] + O=C1CN(/N=C/c2ccc([N+](=O)[O-])o2)C(=O)N1 [Nitrofurantoin] ?
Result: -0.221

====

# Tested on: S. aureus DSM 20231;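 further: OD595 on entry to stationary phase over no-drug wells; at most 1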
# Protocol Notes: fitness (endpoint OD595 vs no drug) (fraction); higher = more growth
# Condition Description: first compound 250 µg/mL; partner 0.0625 µg/mL
Below, each of the compounds is paired with its reported fitness value.
Give the figure only, with no unit attached.

Task: What value of fitness has been recorded for this entry: CC(=O)Oc1ccccc1C(=O)O [Acetylsalicylic acid] + CC1=C\[C@@H](O)CC(=O)Cc2nc(co2)C(=O)N2CCC=C2C(=O)O[C@H](C(C)C)[C@H](C)/C=C/C(=O)NC\C=C\1 [Virginiamycin M1]
Result: 0.86

Task: What does the record list as fitness for CC(=O)Oc1ccccc1C(=O)O [Acetylsalicylic acid] + CO[C@@]12[C@H](COC(N)=O)C3=C(C(=O)C(C)=C(N)C3=O)N1C[C@@H]1N[C@@H]12 [Mitomycin C] ?
Result: 0.559

Task: // returns reported fitness for input CC(=O)Oc1ccccc1C(=O)O [Acetylsalicylic acid] + CCC[C@@H]1C[C@@H](C(=O)N[C@@H]([C@H]2O[C@H](SC)[C@H](O)[C@@H](O)[C@H]2O)[C@H](C)Cl)N(C)C1 [Clindamycin]
Result: 0.143

Task: Which fitness is listed for CC(=O)Oc1ccccc1C(=O)O [Acetylsalicylic acid] + Cc1onc(-c2ccccc2)c1C(=O)N[C@@H]1C(=O)N2[C@@H]1SC(C)(C)[C@@H]2C(=O)O [Oxacillin] ?
Result: 0.494

====

# Tested on: S. pneumoniae D39V
# Protocol Notes: Bliss interaction score (quartile over a dose matrix) (fitness difference); higher = more antagonism (negative = synergy)
Entries and their Bliss interaction score
# output: bare number, no unit

Task: I'm curious: which Bliss interaction score was measured for COc1ccc(C[C@H](N)C(=O)N[C@H]2[C@@H](O)[C@H](n3cnc4c(N(C)C)ncnc43)O[C@@H]2CO)cc1 [Puromycin] + Oc1cc(Cl)ccc1Oc1ccc(Cl)cc1Cl [Triclosan] tested on S. pneumoniae D39V?
Result: 0.102

Task: Lookup: Bliss interaction score / S. pneumoniae D39V / CN(C)c1cc(NC(=O)CNC(C)(C)C)c(O)c2c1C[C@H]1C[C@H]3[C@H](N(C)C)C(O)=C(C(N)=O)C(=O)[C@@]3(O)C(O)=C1C2=O [Tigecycline] + COc1cc(Cc2cnc(N)nc2N)cc(OC)c1OC [Trimethoprim]
Result: -0.119

Task: Request - read-out Bliss interaction score | tested on S. pneumoniae D39V | molecule CO/N=C(\C(=O)N[C@@H]1C(=O)N2C(C(=O)O)=C(COC(N)=O)CS[C@H]12)c1ccco1 [Cefuroxime] + CCC[C@@H]1C[C@@H](C(=O)N[C@@H]([C@H]2O[C@H](SC)[C@H](O)[C@@H](O)[C@H]2O)[C@@H](C)O)N(C)C1 [Lincomycin]
Result: 0.0595

Task: // fetch S. pneumoniae D39V Bliss interaction score for CO/N=C(\C(=O)N[C@@H]1C(=O)N2C(C(=O)O)=C(COC(N)=O)CS[C@H]12)c1ccco1 [Cefuroxime] + CN[C@H](CC(C)C)C(=O)N[C@H]1C(=O)N[C@@H](CC(N)=O)C(=O)N[C@H]2C(=O)N[C@H]3C(=O)N[C@H](C(=O)N[C@H](C(=O)O)c4cc(O)cc(O)c4-c4cc3ccc4O)[C@H](O)c3ccc(c(Cl)c3)Oc3cc2cc(c3O[C@@H]2O[C@H](CO)[C@@H](O)[C@H](O)[C@H]2O[C@H]2C[C@](C)(N)[C@H](O)[C@H](C)O2)Oc2ccc(cc2Cl)[C@H]1O [Vancomycin]
Result: -0.0597

Task: For the record CO/N=C(\C(=O)N[C@@H]1C(=O)N2C(C(=O)O)=C(COC(C)=O)CS[C@H]12)c1csc(N)n1 [Cefotaxime] + CN(N=O)C(=O)N[C@@H](C=O)[C@@H](O)[C@H](O)[C@H](O)CO [Streptozotocin] , what value of Bliss interaction score is listed for S. pneumoniae D39V?
Result: 0.0325

Task: Bliss interaction score of COc1cccc2c1C(=O)c1c(O)c3c(c(O)c1C2=O)C[C@@](O)(C(=O)CO)C[C@@H]3O[C@H]1C[C@H](N)[C@H](O)[C@H](C)O1 [Doxorubicin] + CN1C2=CC=CC=C2N=C3C1=CC=CC3=O [Pyocyanin] on S. pneumoniae D39V?
Result: 0.0322

Task: // fetch S. pneumoniae D39V Bliss interaction score for CO/N=C(\C(=O)N[C@@H]1C(=O)N2C(C(=O)O)=C(COC(C)=O)CS[C@H]12)c1csc(N)n1 [Cefotaxime] + O=C(O)[C@H]1/C(=C/CO)O[C@@H]2CC(=O)N21 [Clavulanic]
Result: -0.0534

Task: For S. pneumoniae D39V, provide Bliss interaction score of CO/N=C(\C(=O)N[C@@H]1C(=O)N2C(C(=O)O)=C(COC(N)=O)CS[C@H]12)c1ccco1 [Cefuroxime] + COc1cccc2c1C(=O)c1c(O)c3c(c(O)c1C2=O)C[C@@](O)(C(=O)CO)C[C@@H]3O[C@H]1C[C@H](N)[C@H](O)[C@H](C)O1 [Doxorubicin] please.
Result: -0.0401
